- measured.target: morphine-compound cerebral receptors
- protocol.text: Fixation on morphine-compound cerebral receptors (displacement of tritiated etorphin)
- condition.label: rat-brain homogenate, 1 mg/ml protein, 30 minutes at 35° C; read-out: CI50 (displacement of tritiated etorphin)
measured.endpoint: IC50 (µM)
A number alone suffices; assume µM.

[in] Note down IC50 recorded for CC(=O)n1cc(N2CCN(Cc3ccccc3)CC2)c2ccccc21 [known compound, 1-acetyl-3-benzylpiperazino-indole]
[out] 103

Taken from patent US4382935A.
